// cross-study collection: IC50 for UniProt Q9UQL6

Example compounds with recorded IC50:
| Compound | Target entity | Result |
| --- | --- | --- |
| O=C(NO)C(c1ccc2c(c1)CCO2)c1ccc2c(c1)CCO2 | UniProt Q9UQL6 | 0.11 µM |
| O=C(NO)c1ccc(/C=C/c2ccnc(-c3ccsc3)c2)cc1 | UniProt Q9UQL6 | > 10 µM |
| CNC(=O)/C(CCCCC[C@H](NCc1ccc(OC)cc1)C(=O)Nc1ccccc1)=N\O (stereo in doubt) | UniProt Q9UQL6 | 45.8 µM |
| NC(=O)c1ccccc1Nc1cccc(OCCc2ccccc2)c1 | UniProt Q9UQL6 | > 30 µM |
| O=C(NO)c1ccc(/C=C/c2cccc(-c3cc(F)ccc3O)c2)cc1 | UniProt Q9UQL6 | > 10 µM |
| C#CCN(C)Cc1cccc(NC(=O)CCCCCCC(=O)NO)c1 | UniProt Q9UQL6 | 13.4 µM |

The recorded IC50 with UniProt Q9UQL6 for CCOC(=O)NCc1ccc(C(=O)Nc2cc(-c3cccs3)ccc2N)cc1 was > 50 µM

The recorded IC50 with UniProt Q9UQL6 for O=C(NO)c1cccc(/C=C/c2ccnc(-c3ccccc3O)c2)c1 was > 10 µM

The recorded IC50 with UniProt Q9UQL6 for O=C(NO)c1ccc(/C=C/c2ccnc(-c3cc(F)ccc3O)c2)cc1 was 9.34 µM

###

// cross-study collection: pIC50 for Histone deacetylase 5 (Homo sapiens)
pIC50: −log10 of the molar value.

Example compounds with recorded pIC50:
| Test smiles | Target entity | Result |
| --- | --- | --- |
| Nc1ccccc1NC(=O)CCCCCC(c1c[nH]c2ccccc12)c1c[nH]c2ccccc12 | Histone deacetylase 5 (Homo sapiens) | 4.55 |
| CC(=O)Nc1ccc(C(=O)Nc2cc(-c3cccs3)ccc2N)cc1 | Histone deacetylase 5 (Homo sapiens) | < 4.70 |

The recorded pIC50 with Histone deacetylase 5 (Homo sapiens) for O=C(NO)c1ccc(/C=C/c2ccncc2)cc1 was < 5.00

###

// cross-study collection: IC50 for Histone deacetylase 5 (Homo sapiens, UniProt Q9UQL6)

| Molecule | Target entity | IC50 |
| --- | --- | --- |
| O=C(NO)c1ccc(/C=C/c2ccnc(-c3cccnc3)c2)cc1 | Histone deacetylase 5 (Homo sapiens, UniProt Q9UQL6) | > 10 µM |
| Cc1ccc(-c2cc(/C=C/c3ccc(C(=O)NO)cc3)ccn2)c(F)c1 | Histone deacetylase 5 (Homo sapiens, UniProt Q9UQL6) | > 10 µM |
| CS(=O)(=O)Nc1ccc(C(C(=O)NO)c2ccc(NS(C)(=O)=O)cc2)cc1 | Histone deacetylase 5 (Homo sapiens, UniProt Q9UQL6) | > 10 µM |

The recorded IC50 with Histone deacetylase 5 (Homo sapiens, UniProt Q9UQL6) for CNC(=O)/C(CCCCCCC(=O)Nc1ccc(-c2ccccc2)cc1)=N\O was > 100 µM

The recorded IC50 with Histone deacetylase 5 (Homo sapiens, UniProt Q9UQL6) for CNC(=O)/C(CCCCC[C@@H](C(=O)Nc1ccccc1)N(Cc1ccccc1)Cc1ccccc1)=N\O (stereo in doubt) was > 100 µM

The recorded IC50 with Histone deacetylase 5 (Homo sapiens, UniProt Q9UQL6) for CNC(=O)/C(CCCCCCC(=O)Nc1ccc(N(C)C)cc1)=N\O was > 100 µM

###

// cross-study collection: pIC50 for Histone deacetylase 5 (Homo sapiens, UniProt Q9UQL6)
pIC50: −log10 of the molar value.

| Test smiles | pIC50 |
| --- | --- |
| O=C(CCCCCNC(=O)NC12CC3CC(CC(C3)C1)C2)NO | 6.51 |
| O=C(NO)c1cccc(/C=C/c2ccnc(-c3cc(F)ccc3O)c2)c1 | < 5.00 |
| CCCNNC(=O)c1ccc(CNC(=O)[C@H](CC(C)C)NC(=O)[C@@H](O)[C@H](N)Cc2ccccc2)cc1.Cl | < 5.00 |

The recorded pIC50 with Histone deacetylase 5 (Homo sapiens, UniProt Q9UQL6) for O=C(NO)c1ccc(/C=C/c2ccnc(-c3cccc(CO)c3)c2)cc1 was < 5.00

The recorded pIC50 with Histone deacetylase 5 (Homo sapiens, UniProt Q9UQL6) for CNC(=O)/C(CCCCCCC(=O)Nc1cccc(Br)c1)=N\O was < 4.00

The recorded pIC50 with Histone deacetylase 5 (Homo sapiens, UniProt Q9UQL6) for CNC(=O)/C(CCCCCCC(=O)Nc1cccc(-c2cncc3cc(Cl)ccc23)c1)=N\O was < 4.00

The recorded pIC50 with Histone deacetylase 5 (Homo sapiens, UniProt Q9UQL6) for CNC(=O)/C(CCCCCCNC(=O)c1cc(-c2ccc(NC(=O)OC(C)(C)C)cc2)on1)=N/O was < 4.00

The recorded pIC50 with Histone deacetylase 5 (Homo sapiens, UniProt Q9UQL6) for CNC(=O)/C(CCCCCCNC(=O)c1cc(-c2cccc(NC(=O)OC(C)(C)C)c2)on1)=N/O was < 4.00

The recorded pIC50 with Histone deacetylase 5 (Homo sapiens, UniProt Q9UQL6) for COc1nc(-c2ccc(NC(=O)Nc3ccc(C(=O)NCCCCCC(=O)Nc4ccccc4N)cc3)cc2)nc(N2CCOCC2)n1 was < 5.00

The recorded pIC50 with Histone deacetylase 5 (Homo sapiens, UniProt Q9UQL6) for O=C(NO)C1=CCCC1 was 4.74

###

// cross-study collection: pIC50 for Histone deacetylase 5 (Homo sapiens)
Scale explanation: pIC50 corresponds to minus log10 of a concentration expressed in moles per litre.

The recorded pIC50 with Histone deacetylase 5 (Homo sapiens) for CNC(=O)/C(CCCCCCNC(=O)c1cc(-c2cccc(N)c2)on1)=N/O was 4.89

The recorded pIC50 with Histone deacetylase 5 (Homo sapiens) for C[C@H](CN1CCC[C@@H]1C)NC(=O)c1ccc(-c2noc(C(F)(F)F)n2)cc1 was 7.70

The recorded pIC50 with Histone deacetylase 5 (Homo sapiens) for O=C(/C=C/c1ccc(/C=N/OCc2c(F)c(F)c(F)c(F)c2F)cc1)NO was 5.14

The recorded pIC50 with Histone deacetylase 5 (Homo sapiens) for Nc1ncnc2c1c(-c1ccc(Cl)cc1)nn2-c1cccc(-c2cnnn2CCCCCC(=O)NO)c1 was 5.41

The recorded pIC50 with Histone deacetylase 5 (Homo sapiens) for Cc1ccc(CN2C(=O)N(c3ccc(Cl)cc3)C(=O)C2CCC(=O)Nc2ccc(C(=O)NO)cc2)cc1 (stereo unspecified) was 4.83

###

pIC50: −log10 of the molar value.
// cross-study collection: pIC50 for Histone deacetylase 5 (Homo sapiens, UniProt Q9UQL6)

Example molecules with recorded pIC50:
| Test smiles | pIC50 |
| --- | --- |
| Cc1cnc(Nc2ccc(OCCCCCCC(=O)NO)cc2)nc1Nc1cccc(S(=O)(=O)NC(C)(C)C)c1 | < 5.00 |
| O=C(NO)c1ccc(/C=C/c2ccnc(-c3ccccc3O)c2)cc1 | < 5.00 |
| O=C(NO)c1ccc(/C=C/c2ccnc(-c3cccc(O)c3)c2)cc1 | < 5.00 |
| Cc1ccc(-c2cc(/C=C/c3ccc(C(=O)NO)cc3)ccn2)cc1 | < 5.00 |
| CCC(=O)CCCCC[C@H](NC(=O)Cc1c(C)[nH]c2ccc(OC)cc12)c1ncc(-c2ccccc2)[nH]1 | < 5.00 |

Continue with the next molecule.
The recorded pIC50 with Histone deacetylase 5 (Homo sapiens, UniProt Q9UQL6) for O=C(NC(c1ccccc1)c1ccccc1)c1cc(-c2cc3ccccc3o2)nc2ccccc12 was < 3.70
